biological target: Tau-Synaptogyrin3 interaction (Homo sapiens, UniProt O43761+P10636); experiment: Cell-based split luciferase (NanoBit) protein complementary assay for Tau-Synaptogyrin3 interaction in stable cell line HEK293T-TK252-1E2; conditions: HEK293T-TK252-1E2 cells, 48 hrs compound treatment, L/F value (luciferase activity/fluorescent intensity) compared to DMSO control
Sequence (P10636 1-441 isoform P10636-8): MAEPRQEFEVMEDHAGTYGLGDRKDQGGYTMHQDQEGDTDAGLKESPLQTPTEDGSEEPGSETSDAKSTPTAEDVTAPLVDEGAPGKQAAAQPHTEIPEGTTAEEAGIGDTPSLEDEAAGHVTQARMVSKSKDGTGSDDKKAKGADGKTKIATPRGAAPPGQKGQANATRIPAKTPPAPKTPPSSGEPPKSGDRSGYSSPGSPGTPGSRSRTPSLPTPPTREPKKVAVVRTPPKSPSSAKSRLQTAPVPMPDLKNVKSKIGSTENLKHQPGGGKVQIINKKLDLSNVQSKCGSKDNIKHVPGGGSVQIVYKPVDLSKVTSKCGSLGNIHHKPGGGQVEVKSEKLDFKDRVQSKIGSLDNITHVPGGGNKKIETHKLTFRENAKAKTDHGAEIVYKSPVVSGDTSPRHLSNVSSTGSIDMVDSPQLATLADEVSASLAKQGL
Sequence (O43761 whole entry): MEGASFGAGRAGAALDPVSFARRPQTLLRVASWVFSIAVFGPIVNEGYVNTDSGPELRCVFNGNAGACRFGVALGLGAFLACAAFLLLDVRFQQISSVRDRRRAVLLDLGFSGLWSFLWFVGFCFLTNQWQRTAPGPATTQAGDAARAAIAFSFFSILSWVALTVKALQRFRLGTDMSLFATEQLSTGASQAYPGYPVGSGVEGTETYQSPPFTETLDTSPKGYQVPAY
Quick reference for IC50 among some compounds

Examples with their reported IC50 follow.
# Smiles code, IC50
data = [
    ("Nc1ccc(-c2ccc3[nH]c4c(c3c2)CN(C(=O)c2ccccc2)CC4)cc1", "< 3 µM"),
    ("Cc1ccc(C(=O)N2CCc3[nH]c4ccc(-c5ccccc5C#N)cc4c3C2)cn1", "3 to 12 µM"),
    ("O=S(=O)(c1cccnc1)N1CCc2[nH]c3cc(-c4ccccc4)ccc3c2C1", "3 to 12 µM"),
]

Input: Given the entry Cc1ccc(C(=O)N2CCc3[nH]c4ccc(-c5cccc(C#N)c5)cc4c3C2)cc1 , what IC50 was observed with Tau-Synaptogyrin3 interaction (Homo sapiens, UniProt O43761+P10636)?
Output: 3 to 12 µM
